Source: PubChem BioAssay (NCI)

- Test system: T-47D breast
- MEASUREMENT_DESCRIPTION: NCI tumour cell line growth inhibition, 48 h
Consider the following molecules and their measured TGI readings.
MEASUREMENT_NAME: TGI

{"MOLECULE": "CNc1nncc2[nH]cnc12", "MEASUREMENT_NAME": "TGI", "VALUE_REPORTED": "> 100 µM"}
{"MOLECULE": "C[C@@H]1CCC2[C@@H](C)[C@@H](O[C@H]3O[C@@H]4O[C@@]5(C)CCC6[C@H](C)CCC([C@H]3C)[C@]64OO5)O[C@@H]3O[C@@]4(C)CCC1[C@@]23OO4 (stereo partly specified)", "MEASUREMENT_NAME": "TGI", "VALUE_REPORTED": "> 25 µM"}
{"MOLECULE": "Nc1ncnc2c1ccn2C/C=C/CO", "MEASUREMENT_NAME": "TGI", "VALUE_REPORTED": "> 100 µM"}
{"MOLECULE": "O=C(O)C(O)C(O)C(O)C(O)CO (stereo unspecified)", "MEASUREMENT_NAME": "TGI", "VALUE_REPORTED": "> 100 µM"}
{"MOLECULE": "c1ccc(C2=NOC(c3ccccc3)N2C23CC4CC(CC(C4)C2)C3)cc1 (stereo unspecified)", "MEASUREMENT_NAME": "TGI", "VALUE_REPORTED": "> 10 µM"}
{"MOLECULE": "COc1cc2c(cc1OCCCN1C(=O)c3cccc4cccc(c34)C1=O)N=C[C@@H]1CCCN1C2=O", "MEASUREMENT_NAME": "TGI", "VALUE_REPORTED": "> 100 µM"}
